# System: SK-MEL-28
# ASSAY_PROTOCOL: NCI tumour cell line growth inhibition, 48 h
Activity calls are given as the source filed them. Cut-off read from the data, not from the text of the source: active = GI50 up to about 1.1 µM and inactive = higher.
Listed here are compounds together with their documented GI50.

COMPOUND: COc1ccc2c(c1)CCC(OS(=O)(=O)CC13CCC(CC1=O)C3(C)C)C2=O (stereo not given)
GI50: 36.3 µM (inactive)

COMPOUND: N#CC(C(=O)/C(=N/NC(=O)c1ccccc1O)C(C#N)c1ccc(Cl)cc1)c1ccc(Cl)cc1 (stereo not given)
GI50: 14.4 µM (inactive)

COMPOUND: N#CCCN(CCC#N)c1ccc(/C=C(/NC(=O)c2cc([N+](=O)[O-])ccc2Cl)C(=O)N=[N+]=[N-])cc1
GI50: > 100 µM (inactive)

COMPOUND: Clc1ccc(CSC2=NCCN2)cc1Cl
GI50: 18.7 µM (inactive)

COMPOUND: C[C@]12CCC(O)CC1=CC[C@@H]1[C@@H]2CC[C@]2(C)C(O)[C@H](n3ccnc3)C[C@@H]12 (stereo not given in full)
GI50: > 100 µM (inactive)

COMPOUND: COc1ccccc1NC(=O)C1=C(C)NC(C)=C(C(=O)Nc2ccccc2OC)C1c1ccc(N(C)C)cc1
GI50: 22.6 µM (inactive)

COMPOUND: O=[As](O)(O)c1ccc(NCc2ccccc2)cc1
GI50: > 100 µM (inactive)

COMPOUND: CN1CCC23c4ccccc4NC1C21CCN(C)C3Nc2ccccc21
GI50: > 375 µM (inactive)

COMPOUND: Cn1c(=O)c2sc3cc4c(cc3c2c2ccccc21)sc1c(=O)n(C)c2ccccc2c14
GI50: > 100 µM (inactive)

COMPOUND: COC(=O)C(=Cc1cc(OC)c(OC)c(OC)c1-c1cc2c(cc1C(C)=O)OCO2)C(=O)OC
GI50: 33.1 µM (inactive)

====

Listed here are molecules together with their documented GI50.
# Test system: UACC-257
# ASSAY_PROTOCOL: NCI tumour cell line growth inhibition, 48 h
The source made the active and inactive calls. No stated cut-off is given here; in the data, active = GI50 up to about 1.1 µM and inactive = higher. Where a SMILES comes first, the peptide text is derived from it. Bridges are numbered along the chain shown (N, C = ends). [ ]: non-standard residue; d: D form. The star is where a group is joined. ξ: configuration not given here. PhAc = O=C(Cc1ccccc1)*; ξP = O=C(O)C1CCCN1

MOLECULE: CCCCCCCCCCCCCCCCCCOCC(O)CO (stereo unspecified)
GI50: > 23.9 µM (inactive)
//
MOLECULE: C[C@H](NC(=O)c1ccc(CNC(=O)/C=C/c2cccc(Oc3ccccc3)c2)cc1)c1ccccc1
GI50: > 100 µM (inactive)
//
MOLECULE: COc1cc(/C=N\NC(=O)C[N+](C)(C)C)cc(OC)c1OC
GI50: > 10 µM (inactive)
//
MOLECULE: CN(C)C(=O)C(F)(F)C(c1ccccc1)C1C(=O)N(C)C(=O)N(C)C1=O (stereo unspecified)
GI50: > 100 µM (inactive)
//
MOLECULE: O=C(Cc1ccccc1)N[C@@H]1COC(=O)C2CCCN2C(=O)[C@@H]2CCCN2C1=O (stereo partly specified) (PhAc-[dS]-Pro-[ξP]; ester 1-C)
GI50: > 100 µM (inactive)
//
MOLECULE: N/C(=N\c1ccccc1)c1ccccc1N
GI50: > 100 µM (inactive)
//
MOLECULE: O=C1/C(=C/c2ccc3c(c2)CCC3)Cc2cc3c(cc21)CCC3
GI50: > 100 µM (inactive)
//
MOLECULE: C=CC(=O)N1C/C(=C\c2ccc(F)cc2)C(=O)/C(=C/c2ccc(F)cc2)C1
GI50: 1.19 µM (inactive)
//
MOLECULE: CC1(C)COC(C23C4C5C2C2C3C4C52I)=N1 (stereo unspecified)
GI50: > 100 µM (inactive)
//
MOLECULE: Cc1noc(-c2ccc(C(=O)O)[nH]2)c1Br
GI50: > 100 µM (inactive)
//
MOLECULE: COc1ccc(C(=C(Cl)c2ccccc2)c2ccc(OC)cc2)cc1
GI50: 86.5 µM (inactive)

====

# Test system: Hs-578T
# ASSAY_PROTOCOL: NCI tumour cell line growth inhibition, 48 h
Active and inactive are the calls of the source. Cut-off read from the data, not from the text of the source: active = GI50 up to about 1.1 µM and inactive = higher.
Possible outcomes: active, inactive

COMPOUND: C=C1CC2(CCOc3ccc(Cl)cc32)OC1=O (stereo not drawn)
ANSWER_LABEL: active
--
COMPOUND: COC(=O)[C@]1(Cc2ccc3ccccc3c2)CCCCCCN1C(=O)c1ccccc1
ANSWER_LABEL: inactive
--
COMPOUND: CCN(CC)P(=O)(c1ccc2c(c1)OCCOCCOCCOCCO2)N(CC)CC
ANSWER_LABEL: inactive
--
COMPOUND: Cc1cn([C@@H]2O[C@H](CO[Si](C)(C)C(C)(C)C)[C@]3(O[C@H]3C(=O)NN)[C@H]2O[Si](C)(C)C(C)(C)C)c(=O)[nH]c1=O
ANSWER_LABEL: inactive
--
COMPOUND: O=C(Nc1ccc(Cl)cc1)c1cc(S(=O)(=O)NC2=Nc3ccc(Cl)cc3C(c3ccccc3)N2)c(SSc2cc(Cl)c(C(=O)Nc3ccc(Cl)cc3)cc2S(=O)(=O)NC2=Nc3ccc(Cl)cc3C(c3ccccc3)N2)cc1Cl (stereo not drawn)
ANSWER_LABEL: inactive
--
COMPOUND: OC(C#Cc1ccccc1)(c1ccccc1)c1ccccc1
ANSWER_LABEL: inactive
--
COMPOUND: CC1CCC(=O)C(C(=O)CC2CC(=O)NC(=O)C2)C1 (stereo not drawn)
ANSWER_LABEL: inactive
--
COMPOUND: O=C(c1ccccc1)N1OCCC1Nc1ccc(Br)cc1 (stereo not drawn)
ANSWER_LABEL: inactive

====

Listed here are molecules together with their documented GI50.
# System: HCC 2998
# ASSAY_PROTOCOL: NCI tumour cell line growth inhibition, 48 h
Activity calls are given as the source filed them. Rule as the data show it: active = GI50 up to about 1.1 µM and inactive = higher.

MOLECULE: N#CC(=C1CCCCC1)c1nc2ccccc2o1
GI50: 50 µM (inactive)
//
MOLECULE: CCOc1cc(NC(C)=O)ccc1C(=O)NN1C(=O)C(Cl)C1c1ccccc1 (stereo not given)
GI50: 17.4 µM (inactive)
//
MOLECULE: C=CCN(C(=O)CNC(=O)C(F)(F)F)c1cc(OCc2ccccc2)c2c(c1)c(C)cn2S(=O)(=O)c1ccccc1
GI50: > 100 µM (inactive)
//
MOLECULE: CC(=O)O[C@@H]1[C@H](C(C)C)[C@@H](OC(C)=O)C/C(C)=C/CC[C@]2(C)O[C@@H]12
GI50: > 100 µM (inactive)
//
MOLECULE: CC12CP(=O)(O)CC1C2(Cl)Cl (stereo not given)
GI50: > 100 µM (inactive)

====

# Tested on: UO-31
# ASSAY_PROTOCOL: NCI tumour cell line growth inhibition, 48 h
Calls of active or inactive are those of the source. No stated cut-off is given here; in the data, active = GI50 up to about 1.1 µM and inactive = higher.
ASSAY_ENDPOINT: GI50

MOLECULE: Cc1ccc(C(=N)c2ccccc2Cc2cccc3ccccc23)c2ccccc12
ASSAY_ENDPOINT: GI50
OBSERVED_RESULT: 44.8 µM (inactive)
//
MOLECULE: O=C1/C(=C\c2ccccc2)c2ccccc2N1/N=C\c1ccccc1
ASSAY_ENDPOINT: GI50
OBSERVED_RESULT: > 100 µM (inactive)
//
MOLECULE: Cc1ccc(NC(=O)C(=O)C(C(=O)/C=C/c2ccccc2)C2OC(=O)c3ccccc32)c(C)c1 (centres undefined)
ASSAY_ENDPOINT: GI50
OBSERVED_RESULT: > 100 µM (inactive)
//
MOLECULE: O=C(Nc1ccccc1)c1cc(S(=O)(=O)Nc2n[nH]c(=O)[nH]2)c(SSc2cc(Cl)c(C(=O)Nc3ccccc3)cc2S(=O)(=O)Nc2n[nH]c(=O)[nH]2)cc1Cl
ASSAY_ENDPOINT: GI50
OBSERVED_RESULT: > 100 µM (inactive)
//
MOLECULE: O=C1C(Cl)=C(N2CCC[C@@H]2CO)C(=O)c2c(O)ccc(O)c21
ASSAY_ENDPOINT: GI50
OBSERVED_RESULT: 1.82 µM (inactive)
//
MOLECULE: NN/C(=N\S(=O)(=O)c1cc2ccccc2o1)Nc1ccc(Cl)cc1
ASSAY_ENDPOINT: GI50
OBSERVED_RESULT: > 100 µM (inactive)
//
MOLECULE: Cc1ccc2nc3c(Cl)c(C)c(=O)cc-3sc2c1
ASSAY_ENDPOINT: GI50
OBSERVED_RESULT: 52.5 µM (inactive)
//
MOLECULE: Cn1c(=O)c2sc3cc4c(cc3c2c2ccccc21)sc1c(=O)n(C)c2ccccc2c14
ASSAY_ENDPOINT: GI50
OBSERVED_RESULT: 74.8 µM (inactive)
//
MOLECULE: CC(C)OP(=O)(OC(C)C)c1c(N)n[nH]c1Nc1ccccc1
ASSAY_ENDPOINT: GI50
OBSERVED_RESULT: > 100 µM (inactive)
